Measured IC50, listed per entry for reference.
Test system: SARS-CoV-2
Assay: Antiviral assay in Caco-2 cells
Type: cell-based
Conditions: Severe acute respiratory syndrome coronavirus 2, Caco-2, read-out: Anti SARS-CoV-2 activity Caco-2 IC50 (µM)
REPORTED_PROPERTY: IC50 (µM)

MOL: C=CCc1ccc(O)c(-c2cc(CC=C)ccc2O)c1
COMPARISON_SYMBOL: =
VAL: 17.7

MOL: CC(=O)O[C@H](CC=C(C)C)C1=CC(=O)c2c(O)ccc(O)c2C1=O
COMPARISON_SYMBOL: >
VAL: 100

MOL: C=CCc1ccc(O)c(-c2ccc(O)c(CC=C)c2)c1
COMPARISON_SYMBOL: =
VAL: 16.2

====

Biological target: SARS-CoV-2 PLpro (Severe acute respiratory syndrome coronavirus 2, UniProt P0DTD1)
REPORTED_PROPERTY: IC50 (µM)

MOL: CC(=O)O[C@H](CC=C(C)C)C1=CC(=O)c2c(O)ccc(O)c2C1=O
OUTPUT_UNIT: µM
VAL: 24.3

====

Assay: Cytotoxicity in Calu-3 cells
Conditions: human
REPORTED_PROPERTY: CC50 (µM)

MOLECULE: C=CCc1ccc(O)c(-c2ccc(O)c(CC=C)c2)c1 [Compound 35, honokiol]
COMPARISON_SYMBOL: >
VAL: 20
--
MOLECULE: CC(=O)O[C@H](CC=C(C)C)C1=CC(=O)c2c(O)ccc(O)c2C1=O [Compound 30, acetylshikonin]
COMPARISON_SYMBOL: >
VAL: 100
--
MOLECULE: CC(C)=CC[C@@]12Oc3cc(O)c([C@H]4C=C(C)C[C@H](c5ccc(O)cc5O)[C@H]4C(=O)c4ccc(O)cc4O)c(O)c3C(=O)[C@]1(O)Oc1cc(O)ccc12 [Compound 13, sanggenon O]
COMPARISON_SYMBOL: =
VAL: 24.9
--
MOLECULE: CC1=C[C@H](c2c(O)ccc([C@@H]3CC(=O)c4c(O)cc(O)cc4O3)c2O)[C@@H](C(=O)c2ccc(O)cc2O)[C@H](c2ccc(O)cc2O)C1 [Compound 16, kuwanon L]
COMPARISON_SYMBOL: =
VAL: 97.7
--
MOLECULE: CC(C)=CCC12Oc3cc(O)c([C@@H]4C=C(C)C[C@H](c5ccc(O)cc5O)[C@H]4C(=O)c4ccc(O)cc4O)c(O)c3C(=O)C1(O)Oc1cc(O)ccc12 (some centres unmarked) [Compound 14, sanggenon D]
COMPARISON_SYMBOL: =
VAL: 46.2

====

System: SARS-CoV-2
Assay: Antiviral assay in Calu-3 cells (spike staining)
Format: cell-based
Details: Severe acute respiratory syndrome coronavirus 2, Calu-3, 48 h, read-out: Anti-SARS-CoV-2 activity IC50 (μM)
Measured IC50, listed per entry for reference.
REPORTED_PROPERTY: IC50 (µM)

MOLECULE: C=CCc1ccc(O)c(-c2cc(CC=C)ccc2O)c1
COMPARISON_SYMBOL: =
VAL: 26.8
//
MOLECULE: C=CCc1ccc(O)c(-c2ccc(O)c(CC=C)c2)c1
COMPARISON_SYMBOL: =
VAL: 28.4
//
MOLECULE: COc1cc(C2Oc3cc([C@H]4Oc5cc(O)cc(O)c5C(=O)[C@@H]4O)ccc3OC2CO)ccc1O (some centres unmarked)
COMPARISON_SYMBOL: >
VAL: 100
//
MOLECULE: CC(C)(O)[C@H](O)COc1c2ccoc2cc2oc(=O)ccc12 [Compound 37, oxypeucedanin hydrate]
COMPARISON_SYMBOL: >
VAL: 100
//
MOLECULE: COc1ccc2c(=O)c(Oc3ccc(C(=O)NC(C)Cc4c[nH]c5ccccc45)cc3)coc2c1 (centres unmarked)
COMPARISON_SYMBOL: >
VAL: 100

====

Molecular target: SARS-CoV-2 PLpro (Severe acute respiratory syndrome coronavirus 2, UniProt P0DTD1)
Experiment: PL^pro fluorogenic peptide cleavage assay (substrate Z-RLRGG-AMC)
Type: biochemical
Design: papain-like protease (PL^pro; domain of nsp3); His; purchased BPS Biosciences BPS-100735-1
Details: read-out: SARS-CoV-2 PL^pro enzyme inhibition (%) 100 μM
Outcome: 1 for inhibition at 100 µM of at least 5%; -1 for anything lower.

COMPOUND: COc1cc(CC(CO)Oc2ccc(CCCO)cc2OC)ccc1O (centres unmarked)
CLASS: -1
--
COMPOUND: COc1ccc(CNC(=O)c2ccc(Cn3c(=O)c(C)nc4ccccc43)cc2)cc1
CLASS: 1
--
COMPOUND: COc1ccc(C(=O)COc2ccc3c(c2)O/C(=C\c2cc(OC)ccc2OC)C3=O)cc1
CLASS: 1
--
COMPOUND: COc1ccc2c(C)c(CC(=O)Nc3c(C)cccc3C(C)C)c(=O)oc2c1OC
CLASS: -1
--
COMPOUND: COc1cc([C@@H]2Oc3c(O)cc([C@H]4Oc5cc(O)cc(O)c5C(=O)[C@@H]4O)cc3[C@H]2CO)ccc1O
CLASS: 1
--
COMPOUND: COc1ccc2c(=O)c(Oc3ccc(C(=O)NC(C)Cc4c[nH]c5ccccc45)cc3)coc2c1 (centres unmarked)
CLASS: 1
--
COMPOUND: COCCN1C(=O)C(O)=C(C(=O)c2ccc(OC)c(C)c2)C1c1ccc(O)cc1 (centres unmarked)
CLASS: 1
--
COMPOUND: COc1ccc(CNC(=O)c2cn(CCC(C)C)c(=O)c3ccccc23)cc1OC
CLASS: -1
--
COMPOUND: C=CCc1ccc(O)c(-c2ccc(O)c(CC=C)c2)c1
CLASS: 1
--
COMPOUND: COc1cc(CNC(=O)CCCC/C=C/C(C)C)ccc1O [Compound 31, trans-capsaicin]
CLASS: 1

====

Biological target: UniProt:P0DTD1
Experiment: PL^pro fluorogenic peptide cleavage assay (substrate Z-RLRGG-AMC)
Format: biochemical
Parameters: papain-like protease (PL^pro; domain of nsp3); His; purchased BPS Biosciences BPS-100735-1
Conditions: read-out: SARS-CoV-2 PL^pro enzyme inhibition (%) 20 μM
Outcome: true for inhibition at 20 µM of at least 6%; false for anything lower.

COMPOUND: COc1ccc2c(=O)c(Oc3ccc(C(=O)NC(C)Cc4c[nH]c5ccccc45)cc3)coc2c1 (stereo not shown) [Compound 42]
CLASS: false

COMPOUND: C=CCc1ccc(O)c(-c2ccc(O)c(CC=C)c2)c1 [Compound 35, honokiol]
CLASS: false

COMPOUND: Cn1cc(CNC(=O)c2cc([N+](=O)[O-])ccc2Cl)cn1 [Compound 38]
CLASS: false

COMPOUND: COc1ccc2c(C)c(CC(=O)Nc3c(C)cccc3C(C)C)c(=O)oc2c1OC [Compound 45]
CLASS: true

COMPOUND: COc1ccc(CNC(=O)c2ccc(Cn3c(=O)c(C)nc4ccccc43)cc2)cc1 [Compound 46]
CLASS: true

COMPOUND: COc1cc2c(cc1OC)/C(=C/C(=O)c1ccc(CSC)cc1)NCC2 [Compound 41]
CLASS: true

COMPOUND: COCCN1C(=O)C(O)=C(C(=O)c2ccc(OC)c(C)c2)C1c1ccc(O)cc1 (stereo not shown) [Compound 39]
CLASS: true

COMPOUND: COc1ccc(C(=O)COc2ccc3c(c2)O/C(=C\c2cc(OC)ccc2OC)C3=O)cc1 [Compound 43]
CLASS: true

COMPOUND: COc1ccc(S(=O)(=O)NCc2ccc(C(=O)NCc3ccccc3)cc2)cc1 [Compound 44]
CLASS: true

COMPOUND: COc1cc(CC(CO)Oc2ccc(CCCO)cc2OC)ccc1O (stereo not shown) [Compound 47]
CLASS: true

COMPOUND: O=C(CC(c1ccccc1)c1ccccc1)NCCCc1ccccc1 [Compound 40]
CLASS: false

COMPOUND: COc1cc(C2Oc3cc([C@H]4Oc5cc(O)cc(O)c5C(=O)[C@@H]4O)ccc3OC2CO)ccc1O (stereo partly shown) [Compound 34, silibinin]
CLASS: true

COMPOUND: COc1cc([C@@H]2Oc3c(O)cc([C@H]4Oc5cc(O)cc(O)c5C(=O)[C@@H]4O)cc3[C@H]2CO)ccc1O [Compound 33, silicristin]
CLASS: false

====

Target: SARS-CoV-2 PLpro (Severe acute respiratory syndrome coronavirus 2)
Test: biochemical
Parameters: papain-like protease (PL^pro; domain of nsp3); purchased Anaspec (Fremont, USA) AS-72263
Conditions: read-out: SARS-CoV-2 PLpro inhibition % enzyme inhibition (20 µM)
REPORTED_PROPERTY: inhibition at 20 µM (%)

COMPOUND: COCCN1C(=O)C(O)=C(C(=O)c2ccc(OC)c(C)c2)C1c1ccc(O)cc1 (centres unmarked) [Compound 39]
VAL: 26

COMPOUND: COc1cc(CC(CO)Oc2ccc(CCCO)cc2OC)ccc1O (centres unmarked) [Compound 47]
VAL: -55.8

COMPOUND: O=C(CC(c1ccccc1)c1ccccc1)NCCCc1ccccc1 [Compound 40]
VAL: 41.5

COMPOUND: COc1ccc(C(=O)COc2ccc3c(c2)O/C(=C\c2cc(OC)ccc2OC)C3=O)cc1 [Compound 43]
VAL: 13.5

COMPOUND: C=CCc1ccc(O)c(-c2ccc(O)c(CC=C)c2)c1 [Compound 35, honokiol]
VAL: 80.6
